Each entry below lists one item and its recorded inhibition value.
Molecular target: Sodium-dependent dopamine transporter (Homo sapiens)
Sequence (Q01959 whole entry): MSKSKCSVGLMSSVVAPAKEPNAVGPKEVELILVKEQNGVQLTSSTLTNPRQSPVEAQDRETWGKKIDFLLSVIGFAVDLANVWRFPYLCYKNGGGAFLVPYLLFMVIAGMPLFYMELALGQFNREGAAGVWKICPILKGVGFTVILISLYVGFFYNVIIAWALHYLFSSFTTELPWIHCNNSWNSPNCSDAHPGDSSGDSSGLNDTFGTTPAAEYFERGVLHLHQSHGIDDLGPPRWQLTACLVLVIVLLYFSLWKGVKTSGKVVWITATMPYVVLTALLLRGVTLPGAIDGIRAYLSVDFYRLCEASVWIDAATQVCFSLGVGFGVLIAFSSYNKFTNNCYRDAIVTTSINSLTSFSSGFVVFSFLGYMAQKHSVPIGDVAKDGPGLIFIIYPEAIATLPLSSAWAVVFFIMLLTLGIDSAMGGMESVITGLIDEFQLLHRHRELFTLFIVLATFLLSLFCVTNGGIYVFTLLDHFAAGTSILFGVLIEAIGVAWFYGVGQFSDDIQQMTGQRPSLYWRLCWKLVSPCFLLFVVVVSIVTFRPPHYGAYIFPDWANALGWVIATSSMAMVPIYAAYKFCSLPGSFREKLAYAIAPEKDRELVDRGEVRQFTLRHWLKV
Assay: Inhibition of dopamine reuptake at human dopamine transporter expressed in CHO cells at 100 nM
Quick note: give the figure in %, leave out the unit.

Example results:
CNCCC(c1ccc(Cl)c(Cl)c1)n1ncnn1 (racemic) :: 48
CN(C)CCC(c1ccc2ccccc2c1)n1ncnn1 (racemic) :: 20
CNCC[C@@H](c1ccc(Cl)c(Cl)c1)n1nnc(C)n1 :: 62
CN(C)CCC(c1ccc(Cl)c(Cl)c1)n1ncnn1 (racemic) :: 58

The compound listed as CN(C)CCC(c1ccc2cc(F)ccc2c1)n1ncnn1 (racemic) shows inhibition equal to 7

The compound identified as CNCC[C@H](c1ccc2ccccc2c1)n1nnc(C)n1 registered its inhibition at 3

Lab note: measured inhibition of CNCCC(c1ccc2cc(OC)ccc2c1)n1nnc(C)n1 (racemic) was 3

The recorded inhibition for entry CNCC[C@@H](c1ccc2ccccc2c1)n1nnc(C)n1 equals 7

# inhibition (compound: CNCCC(c1ccc2ccccc2c1)n1ncnn1 (racemic) ) is 10

====

Assay: Half life in human liver microsomes
Assay type: ADME, Microsome
parameter.measured: half-life

Guide cases for half-life, answers given:
CNCC[C@@H](c1ccc(Cl)c(Cl)c1)n1nnc(C)n1 :: > 60 min
CN(C)CCC(c1ccc2cc(F)ccc2c1)n1ncnn1 (racemic) :: > 60 min
CNCCC(c1ccc2cc(F)ccc2c1)n1nnc(C)n1 (racemic) :: > 60 min
CN(C)CCC(c1ccc2ccccc2c1)n1ncnn1 (racemic) :: 50 min
CNCCC(c1ccc(Cl)c(Cl)c1)n1ncnn1 (racemic) :: > 60 min
CNCCC(c1ccc2ccccc2c1)n1ncnn1 (racemic) :: 49 min
CNCCC(c1ccc2cc(F)ccc2c1)n1ncnn1 (racemic) :: > 60 min

Turning now to a further record.
// half-life lookup, compound = CN(C)CCC(c1ccc(Cl)c(Cl)c1)n1ncnn1 (racemic) , result: 55 min

====

Assay: Cmax in rat at 10 mg/kg, po
Assay type: ADME, organism-based
Set-up: dose 10 mg/kg, route oral
Conditions: in vivo
parameter.measured: Cmax (ng/mL)
Expressed in ng/mL, but write only the number.

Measured Cmax, CNCC[C@@H](c1ccc(Cl)c(Cl)c1)n1nnc(C)n1 : 334

====

Each record here notes measured inhibition.
Target: Sodium-dependent serotonin transporter (Rattus norvegicus)
Experiment: Displacement of [3H]paroxetine from SERT in rat cerebral cortex at 1 uM
Format: tissue-based
Express the result in % but write the number alone.

CN(C)CCC(c1ccc(Cl)cc1)n1ncnn1 (racemic) :: 32.4

Reported inhibition for Cc1nnn(C(CCN(C)C)c2ccc(Cl)c(Cl)c2)n1 (racemic) was 69.4

response.value for Cc1ccc2cc(C(CCN(C)C)n3ncnn3)ccc2c1 (racemic) (field: inhibition) = 87.7

Sample COc1ccc(C(CCN(C)C)n2ncnn2)cc1Cl (racemic) ; inhibition observed: 39.9

Note to self: inhibition recorded for CN(C)CCC(c1ccc(Cl)c(Cl)c1)n1nccn1 (racemic) was 69.9

What the record says about CNCCC(c1ccc2cc(C)ccc2c1)n1ncnn1 (racemic) : inhibition is 93.3

Reported inhibition for CN(C)CCC(c1ccc2ccccc2c1)n1ncnn1 (racemic) was 85.1

The recorded inhibition for entry CNCCC(c1ccc2ccccc2c1)n1nnc(C)n1 (racemic) equals 93.6

inhibition measured on CNCCC(c1ccc2ccccc2c1)n1nnc(-c2ccccc2)n1 (racemic) = 98.4

For reference, reported inhibition for CNCCC(c1ccc(Cl)cc1)n1ncnn1 (racemic) stands at 41.1

The compound listed as CN(C)CCC(c1ccc2ccccc2c1)n1nnc(-c2ccccc2)n1 (racemic) has a reported inhibition of 92.6

Entry under test: CNCCC(c1cccc2ccccc12)n1ncnn1 (racemic) . Its inhibition was 51.6

Query CN(C)CCC(c1ccc(Cl)c(Cl)c1)n1ncnn1 (racemic) yields inhibition of 72

Short answer for Cc1nnn(C(CCN(C)C)c2ccc3ccccc3c2)n1 (racemic) : inhibition was 85

Just so you know, measured inhibition for CN(C)CCC(c1ccc(F)c(F)c1)n1ncnn1 (racemic) came out at 25.3

# inhibition (compound: CNCCC(c1ccc2cc(Cl)ccc2c1)n1ncnn1 (racemic) ) is 52.1

Sure, the documented inhibition for CN(C)CCC(c1ccc2cc(Cl)ccc2c1)n1ncnn1 (racemic) is 54.3

The compound identified as CNCCC(c1ccc(Cl)c(Cl)c1)n1nnc(C)n1 (racemic) registered its inhibition at 86

inhibition recorded for this compound, CNCCC(c1ccc2ccccc2c1)n1ncnn1 (racemic) , is 90.4

Per the records, this compound ( CNCCC(c1ccc(Cl)c(Cl)c1)n1ncnn1 (racemic) ) has inhibition equal to 86

get_value(item= Cc1ccc(C(CCN(C)C)n2ncnn2)cc1C (racemic) , readout=inhibition) returns 49.2

====

Biological target: Sodium-dependent noradrenaline transporter (Homo sapiens)
Sequence (P23975 whole entry): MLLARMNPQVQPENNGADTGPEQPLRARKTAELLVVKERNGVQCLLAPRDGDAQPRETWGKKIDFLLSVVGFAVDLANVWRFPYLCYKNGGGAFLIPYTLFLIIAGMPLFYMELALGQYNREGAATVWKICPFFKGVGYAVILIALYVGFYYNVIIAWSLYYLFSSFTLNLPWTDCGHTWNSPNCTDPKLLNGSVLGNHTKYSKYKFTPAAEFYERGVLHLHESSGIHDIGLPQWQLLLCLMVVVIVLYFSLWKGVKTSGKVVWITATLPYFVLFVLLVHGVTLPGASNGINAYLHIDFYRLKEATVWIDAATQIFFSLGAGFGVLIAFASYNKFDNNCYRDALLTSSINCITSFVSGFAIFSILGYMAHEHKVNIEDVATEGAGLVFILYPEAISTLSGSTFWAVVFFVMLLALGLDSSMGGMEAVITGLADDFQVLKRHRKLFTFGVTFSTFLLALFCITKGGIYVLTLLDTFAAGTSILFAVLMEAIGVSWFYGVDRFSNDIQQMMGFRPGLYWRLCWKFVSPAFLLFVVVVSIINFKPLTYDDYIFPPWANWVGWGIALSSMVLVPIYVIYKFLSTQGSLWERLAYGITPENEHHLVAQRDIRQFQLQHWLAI
Test: Inhibition of norepinephrine reuptake at human NET expressed in MDCK cells at 100 nM
List of inhibition values.
Response body: numeric value in %, unit text excluded.

Please review the entries below; each comes with its answer.
CNCCC(c1ccc2cc(Cl)ccc2c1)n1ncnn1 (racemic) :: 20
CNCCC(c1ccc2cc(OC)ccc2c1)n1ncnn1 (racemic) :: 70
CN(C)CCC(c1ccc2cc(F)ccc2c1)n1ncnn1 (racemic) :: 12
CNCCC(c1ccc2cc(OC)ccc2c1)n1nnc(C)n1 (racemic) :: 84
CNCC[C@H](c1ccc2ccccc2c1)n1nnc(C)n1 :: 37

Summary for this compound, CNCCC(c1ccc2cc(C)ccc2c1)n1ncnn1 (racemic) : inhibition is 55

Lookup result for CNCCC(c1ccc(Cl)c(Cl)c1)n1ncnn1 (racemic) ; measured inhibition: 56

Summary for this compound, CN(C)CCC(c1ccc(Cl)c(Cl)c1)n1ncnn1 (racemic) : inhibition is 37

Sure, the documented inhibition for CNCCC(c1ccc2cc(F)ccc2c1)n1ncnn1 (racemic) is 25

The compound listed as CNCCC(c1ccc2cc(F)ccc2c1)n1nnc(C)n1 (racemic) has a reported inhibition of 39

Lab book: inhibition of CNCC[C@@H](c1ccc(Cl)c(Cl)c1)n1nnc(C)n1 noted as 84

====

# reported IC50; entries follow
Target: Sodium-dependent serotonin transporter (Homo sapiens, UniProt P31645)
Sequence (P31645 whole entry): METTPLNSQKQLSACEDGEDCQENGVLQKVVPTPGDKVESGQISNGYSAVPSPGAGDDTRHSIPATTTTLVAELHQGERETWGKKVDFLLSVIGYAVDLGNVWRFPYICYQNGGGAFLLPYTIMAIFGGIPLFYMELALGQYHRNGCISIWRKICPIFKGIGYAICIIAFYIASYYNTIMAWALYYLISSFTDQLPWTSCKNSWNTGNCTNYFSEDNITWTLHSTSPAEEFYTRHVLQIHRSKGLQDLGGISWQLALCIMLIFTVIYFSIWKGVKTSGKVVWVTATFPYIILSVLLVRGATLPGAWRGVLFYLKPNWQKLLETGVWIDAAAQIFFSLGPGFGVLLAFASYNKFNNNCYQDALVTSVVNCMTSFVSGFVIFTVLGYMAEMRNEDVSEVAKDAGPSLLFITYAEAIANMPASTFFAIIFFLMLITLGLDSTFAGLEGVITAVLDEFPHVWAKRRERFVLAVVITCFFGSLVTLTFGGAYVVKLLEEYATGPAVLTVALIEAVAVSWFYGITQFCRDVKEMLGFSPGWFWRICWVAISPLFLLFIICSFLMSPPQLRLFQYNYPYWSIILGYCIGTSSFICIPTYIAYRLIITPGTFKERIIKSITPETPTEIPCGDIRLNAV
Test: Inhibition of serotonin reuptake at human SERT expressed in HEK293 cells
Your answer is read as µM, so omit the unit and give the number.

Worked cases, answers included:
CN(C)CCC(c1ccc2ccccc2c1)n1ncnn1 (racemic) :: 0.138
CNCCC(c1ccc2ccccc2c1)n1ncnn1 (racemic) :: 0.032
CNCCC(c1ccc(Cl)c(Cl)c1)n1ncnn1 (racemic) :: 0.181
CNCC[C@@H](c1ccc(Cl)c(Cl)c1)n1nnc(C)n1 :: 0.143

Next item in the queue.
So, CN(C)CCC(c1ccc(Cl)c(Cl)c1)n1ncnn1 (racemic) ? Its IC50 was 0.279

====

Target: Sodium-dependent serotonin transporter (Rattus norvegicus) (UniProt P31652)
Sequence (P31652 whole entry): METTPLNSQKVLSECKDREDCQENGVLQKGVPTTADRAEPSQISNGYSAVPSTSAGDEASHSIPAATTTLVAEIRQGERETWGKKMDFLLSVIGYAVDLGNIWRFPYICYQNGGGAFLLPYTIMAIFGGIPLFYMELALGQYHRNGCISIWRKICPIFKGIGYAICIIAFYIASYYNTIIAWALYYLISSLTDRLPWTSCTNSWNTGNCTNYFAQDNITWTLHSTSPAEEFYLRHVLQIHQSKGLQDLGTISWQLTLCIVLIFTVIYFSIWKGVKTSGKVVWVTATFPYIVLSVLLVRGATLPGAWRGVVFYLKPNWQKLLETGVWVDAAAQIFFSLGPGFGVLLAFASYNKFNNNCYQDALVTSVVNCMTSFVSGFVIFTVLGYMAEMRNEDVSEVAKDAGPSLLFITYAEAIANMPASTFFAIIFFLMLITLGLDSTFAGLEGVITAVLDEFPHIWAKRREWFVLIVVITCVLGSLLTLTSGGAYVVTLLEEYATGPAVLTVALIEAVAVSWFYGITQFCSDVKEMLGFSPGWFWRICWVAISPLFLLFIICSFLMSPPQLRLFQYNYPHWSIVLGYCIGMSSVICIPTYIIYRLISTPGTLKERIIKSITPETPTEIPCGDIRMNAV
Assay: Displacement of [3H]paroxetine from SERT in rat cerebral cortex at 100 nM
# Lookup of reported inhibition keyed by entry
Report as a plain number; the unit % is understood.

Here are 5 compounds together with their reported answers.
CN(C)CCC(c1ccc2cc(F)ccc2c1)n1ncnn1 (racemic) :: 74.1
CN(C)CCC(c1ccc(Cl)cc1Cl)n1ncnn1 (racemic) :: -0.2
COc1ccc(C(CCN(C)C)n2ncnn2)cc1OC (racemic) :: 12.9
CNCCC(c1ccc(OC(F)(F)F)cc1)n1ncnn1 (racemic) :: 3.1
COc1ccc2cc(C(CCN(C)C)n3ncnn3)ccc2c1 (racemic) :: 33.6

// field: inhibition; key: CNCCC(c1ccc2cc(F)ccc2c1)n1nnc(C)n1 (racemic) ; value = 81.3

inhibition in this record for CNCC[C@H](c1ccc(Cl)c(Cl)c1)n1nnc(C)n1 : 20

====

Target: Sodium-dependent dopamine transporter (Homo sapiens)
Assay: Inhibition of dopamine reuptake at human dopamine transporter expressed in CHO cells
pIC50: −log10 of the molar value.
Would you mind labelling by pIC50? At or over 7 is true (1), under is false (0).

Worked set:
CNCC[C@@H](c1ccc(Cl)c(Cl)c1)n1nnc(C)n1 :: true (1)
CN(C)CCC(c1ccc2ccccc2c1)n1ncnn1 (racemic) :: false (0)

Assess whether reported pIC50 for CNCCC(c1ccc2ccccc2c1)n1ncnn1 (racemic) sits at 7 or higher.
false (0)

====

Test: Half life in rat at 10 mg/kg, iv
Assay type: ADME, organism-based
Parameters: dose 10 mg/kg, route intravenous
Details: in vivo
parameter.measured: half-life (h)
Write it as a number; the unit h goes unstated.

Input CNCC[C@@H](c1ccc(Cl)c(Cl)c1)n1nnc(C)n1 . Output half-life: 3.12

====

Assay: Volume of distribution at steady state in rat at 10 mg/kg, iv
Assay type: ADME, organism-based
Parameters: dose 10 mg/kg, route intravenous
Conditions: in vivo, read-out: Vdss
parameter.measured: Vd (L/kg)
Hi! Could you send only the number? It should be in L/kg, unit omitted.

get_value(item= CNCC[C@@H](c1ccc(Cl)c(Cl)c1)n1nnc(C)n1 , readout=Vd) returns 6.8
